# studyTarget: GP IIb/IIIa (Homo sapiens, UniProt P05106+P08514)
# Sequence (P08514 32-887 limits assumed): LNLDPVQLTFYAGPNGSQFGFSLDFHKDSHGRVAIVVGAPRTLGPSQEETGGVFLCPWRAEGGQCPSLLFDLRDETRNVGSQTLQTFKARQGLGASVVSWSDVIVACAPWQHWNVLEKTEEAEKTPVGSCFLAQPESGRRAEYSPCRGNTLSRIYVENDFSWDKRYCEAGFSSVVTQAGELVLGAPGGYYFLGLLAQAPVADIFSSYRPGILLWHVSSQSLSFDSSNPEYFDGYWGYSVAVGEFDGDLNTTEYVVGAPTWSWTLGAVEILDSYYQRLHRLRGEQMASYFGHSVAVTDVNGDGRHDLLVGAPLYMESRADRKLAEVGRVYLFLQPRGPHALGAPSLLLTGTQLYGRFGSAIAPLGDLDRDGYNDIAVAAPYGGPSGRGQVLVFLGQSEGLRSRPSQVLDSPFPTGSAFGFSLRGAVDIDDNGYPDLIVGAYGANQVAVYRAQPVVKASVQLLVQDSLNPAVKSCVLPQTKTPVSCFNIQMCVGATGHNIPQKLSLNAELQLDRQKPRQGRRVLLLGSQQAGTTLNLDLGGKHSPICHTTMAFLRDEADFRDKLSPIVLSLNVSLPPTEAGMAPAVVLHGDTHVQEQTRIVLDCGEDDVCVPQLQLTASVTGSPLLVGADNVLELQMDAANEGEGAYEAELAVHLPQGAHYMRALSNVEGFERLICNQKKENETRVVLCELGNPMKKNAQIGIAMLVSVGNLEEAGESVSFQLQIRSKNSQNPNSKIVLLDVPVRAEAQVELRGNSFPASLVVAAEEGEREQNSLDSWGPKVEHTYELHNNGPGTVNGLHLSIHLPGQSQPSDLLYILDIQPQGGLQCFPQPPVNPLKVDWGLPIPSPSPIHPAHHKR
# Sequence (P08514 891-1039 partner limits assumed): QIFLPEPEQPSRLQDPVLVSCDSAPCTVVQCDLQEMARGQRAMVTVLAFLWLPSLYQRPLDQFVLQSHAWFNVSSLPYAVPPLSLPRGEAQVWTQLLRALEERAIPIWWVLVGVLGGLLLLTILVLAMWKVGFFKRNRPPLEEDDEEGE
# Sequence (P05106 27-788): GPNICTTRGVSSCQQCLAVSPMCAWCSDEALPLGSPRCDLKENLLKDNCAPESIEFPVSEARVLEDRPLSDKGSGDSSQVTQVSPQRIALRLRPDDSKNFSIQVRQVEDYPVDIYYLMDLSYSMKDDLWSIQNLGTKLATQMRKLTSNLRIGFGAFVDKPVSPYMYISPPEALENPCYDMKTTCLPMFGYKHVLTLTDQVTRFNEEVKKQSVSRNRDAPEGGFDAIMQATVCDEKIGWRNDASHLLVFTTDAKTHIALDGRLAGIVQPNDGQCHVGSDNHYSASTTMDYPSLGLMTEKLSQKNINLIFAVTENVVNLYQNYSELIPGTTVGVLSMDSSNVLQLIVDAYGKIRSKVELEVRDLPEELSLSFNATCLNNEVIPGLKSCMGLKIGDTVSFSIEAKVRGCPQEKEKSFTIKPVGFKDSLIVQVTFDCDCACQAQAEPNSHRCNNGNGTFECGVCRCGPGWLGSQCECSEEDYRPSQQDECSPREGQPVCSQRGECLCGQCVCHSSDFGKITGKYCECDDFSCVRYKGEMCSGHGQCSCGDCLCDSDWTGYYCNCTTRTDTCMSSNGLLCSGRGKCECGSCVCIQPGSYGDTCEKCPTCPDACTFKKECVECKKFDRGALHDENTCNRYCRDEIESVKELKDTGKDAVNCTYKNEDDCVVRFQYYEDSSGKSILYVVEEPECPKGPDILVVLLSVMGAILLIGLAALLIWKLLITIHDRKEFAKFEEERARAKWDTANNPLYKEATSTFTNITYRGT
# assayComment: In Vitro Solid Phase Purified GP IIb/IIIa Binding Assay (biotinylated fibrinogen)
# studyConditions: biotinylated fibrinogen binding to immobilized purified GP IIb/IIIa; mean ± spread; read-out: αIIbβ3 IC50
# Protocol: In Vitro Solid Phase Purified GP IIb/IIIa Binding Assay The plate was covered and incubated overnight at 4° C. The GP IIb/IIIa solution was discarded and 150 μL of 5% BSA was added and incubated at RT for 1-3 h. The plate was washed extensively with modified Tyrodes buffer. Biotinylated fibrinogen (25 μL/well) at 2× final concentration was added to the wells that contain the test compounds (25 μL/well). The plate was covered and incubated at RT for 2-4 h. […]
assayReadout: IC50 (µM)

Worked cases, answers included:
• O=C(O)CCCC1CCN(C(=O)CCc2ccc3c(n2)NCCC3)CC1 [Cpd 61] = 37.5
• O=C(O)CC(CC1CCN(C(=O)CCc2ccc3c(n2)NCCC3)CC1)c1ccc(OC(F)(F)F)cc1 (stereo not shown) [Cpd 40] = 24
• O=C(O)CC(CC1CCN(C(=O)CCc2ccc3c(n2)NCCC3)CC1)c1ccc2c(c1)OCCO2 (racemic) [Cpd 65] = 3.84

P = COc1ncc(C(CC(=O)O)CC2CCN(C(=O)CCc3ccc4c(n3)NCCC4)CC2)cn1 (stereo not shown) [Cpd 48]
Q = O=C(O)CC(CC1CCN(C(=O)CCc2ccc3c(n2)NCCC3)CC1)c1ccc2c(c1)OCO2 (stereo not shown) [Cpd 11]
// pick larger IC50 from pair: P vs Q Record your answer as the label of the chosen record. Q
(Q: 2.52 µM, P: 1.21 µM)

1 = COc1ccc(C(CCC2CCN(C(=O)CCc3ccc4c(n3)NCCC4)CC2)CC(=O)O)cn1 (stereo not shown) [Cpd 21]
2 = O=C(O)CC(CC1CCN(C(=O)CCc2ccc3c(n2)NCCC3)CC1)c1ccccc1 (stereo not shown) [Cpd 13]
Field: lower IC50 | Options: 1 / 2 # reply format: chosen label 1

A = COc1cc(C(CC(=O)O)CC2CCN(C(=O)CCc3ccc4c(n3)NCCC4)CC2)ccc1O (stereo not shown) [Cpd 76a]
B = COc1ccc(C(CCC2CCN(C(=O)CCc3ccc4c(n3)NCCC4)CC2)CC(=O)O)cn1 (single isomer, unassigned) [Cpd 21a]
C = O=C(O)CC(CC1CCN(C(=O)CCc2ccc3c(n2)NCCC3)CC1)c1ccc2c(c1)OCC2 (single isomer, unassigned) [Cpd 36a]
D = CSc1cccc(C(CC(=O)O)CC2CCN(C(=O)CCc3ccc4c(n3)NCCC4)CC2)c1 (racemic) [Cpd 66]
E = O=C(O)CC(c1cnc2c(c1)CCCC2)C1CCN(C(=O)CCCc2ccc3c(n2)NCCC3)CC1 (single isomer, unassigned) [Cpd 58a]
Arrange these compounds by their IC50, starting with the largest number. Labels, ranked as asked. D, A, B, E, C

P = O=C(O)CC(CC1CCN(C(=O)CCc2ccc3c(n2)NCCC3)CC1)c1cccs1 (racemic) [Cpd 63]
Q = O=C(O)CC(CC1CCN(C(=O)CCCc2ccc3c(n2)NCCC3)CC1)c1cccc(F)c1 (stereo not shown) [Cpd 31]
R = O=C(O)CC(CC1CCN(C(=O)CCc2ccc3c(n2)NCCC3)CC1)c1ccc2c(c1)OCC2 (stereo not shown) [Cpd 36]
S = COc1ccc(C(CCC2CCN(C(=O)CCc3ccc4c(n3)NCCC4)CC2)CC(=O)O)cn1 (single isomer, unassigned) [Cpd 21b]
Ascending by IC50, please: list the compounds accordingly. Put the labels in the order asked and list them. S, R, P, Q

A = O=C(O)CC(CCC1CCN(C(=O)c2cccc(NC3=NCCCC3)c2)CC1)c1ccc2c(c1)OCO2 (stereo not shown) [Cpd 53]
B = COc1ccc(C(CC(=O)O)CC2CCN(C(=O)CCc3ccc4c(n3)NCCC4)CC2)cc1F (stereo not shown) [Cpd 42]
Between these two entries, A and B , state which has the higher IC50. Write the label of whichever entry you select. B
(B: 5 µM, A: 0.94 µM)

a = O=C(O)CC(CCC1CCN(C(=O)CCc2ccc3c(n2)NCCC3)CC1)c1cccnc1 (stereo not shown) [Cpd 8]
b = O=C(O)CC(CCC1CCN(C(=O)Cc2ccc3c(n2)NCCC3)CC1)c1ccc2c(c1)OCO2 (stereo not shown) [Cpd 55]
c = O=C(O)CC(CCC1CCN(C(=O)CCc2ccc3c(n2)NCCC3)CC1)c1cnc2ccccc2c1 (stereo not shown) [Cpd 51]
Rank the 3 compounds: largest IC50 first, smallest last. Write the labels, ordered according to the request. b, a, c
(b: 15.6 µM, a: 1.36 µM, c: 0.48 µM)

a = O=C(O)CC(CCC1CCN(C(=O)c2cccc(NC3=NCCCN3)c2)CC1)c1cccnc1 (stereo not shown) [Cpd 6]
b = COc1ccc(C(CC(=O)O)CC2CCN(C(=O)CCc3ccc4c(n3)NCCC4)CC2)cc1 (racemic) [Cpd 60]
Param metric = IC50; output whichever of a , b has the minimum value. I would appreciate it if you answered with the label of your choice. a
